target: furin, P09958; assay: furin cleavage Z-score vs untreated control; higher = more cleavage, active = 3.5 or more, inactive = 1 or less, 8 variable residues between constant flanks; conditions: 7.5 min;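 also: purified furin at 1:10 enzyme:substrate in 50 mM HEPES pH 7.5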
Sequence (P09958 whole entry): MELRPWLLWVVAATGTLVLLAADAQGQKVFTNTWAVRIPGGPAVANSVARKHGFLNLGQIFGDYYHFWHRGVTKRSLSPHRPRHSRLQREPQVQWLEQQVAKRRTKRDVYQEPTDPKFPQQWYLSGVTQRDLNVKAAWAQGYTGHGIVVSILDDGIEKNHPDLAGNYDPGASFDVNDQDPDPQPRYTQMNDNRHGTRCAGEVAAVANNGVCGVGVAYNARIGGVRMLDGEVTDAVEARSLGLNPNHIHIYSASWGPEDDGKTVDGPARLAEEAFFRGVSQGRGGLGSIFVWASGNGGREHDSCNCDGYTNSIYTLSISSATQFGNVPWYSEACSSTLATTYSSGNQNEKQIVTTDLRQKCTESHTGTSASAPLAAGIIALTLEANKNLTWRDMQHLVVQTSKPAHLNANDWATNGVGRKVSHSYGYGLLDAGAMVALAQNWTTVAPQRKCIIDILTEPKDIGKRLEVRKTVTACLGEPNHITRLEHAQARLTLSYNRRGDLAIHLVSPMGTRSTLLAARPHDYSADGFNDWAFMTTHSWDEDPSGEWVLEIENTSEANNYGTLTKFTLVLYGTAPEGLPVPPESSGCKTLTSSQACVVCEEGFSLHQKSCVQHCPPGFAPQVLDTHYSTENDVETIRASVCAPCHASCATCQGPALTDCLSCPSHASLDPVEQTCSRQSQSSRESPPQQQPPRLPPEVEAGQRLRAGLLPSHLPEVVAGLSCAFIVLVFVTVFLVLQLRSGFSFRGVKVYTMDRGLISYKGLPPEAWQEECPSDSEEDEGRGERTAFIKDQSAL
The other results are listed elsewhere or left out. No count for the full screen is at hand.
Class (required): determined from furin cleavage Z-score; valid ranges are low bin (below 1), mid bin (1 to below 8), high bin (8 or more)

Please let me know in which category the item CARRTRSRSPAGNASASA [FS-2521] belongs.
mid bin

Please let me know in which category the item CAEEVALSTTAGNASASA [HC842] belongs.
low bin

Please let me know in which category the item CAKGSRRKKSAGNASASA [FS-39] belongs.
mid bin

Please let me know in which category the item CAILHRQKRGAGNASASA [FS-665] belongs.
high bin

Please let me know in which category the item CAFVSLLAPGAGNASASA [HC360] belongs.
low bin

Please let me know in which category the item CARRTRSFSWAGNASASA [FS-1790] belongs.
low bin

Please let me know in which category the item CARNKRESGKAGNASASA [FS-1757] belongs.
high bin

Please let me know in which category the item CARRRRQLDPAGNASASA [FS-2598] belongs.
high bin

Please let me know in which category the item CARNKREDRTAGNASASA [FS-2727] belongs.
high bin

Please let me know in which category the item CAMIHRFWKSAGNASASA [FS-1376] belongs.
low bin

Please let me know in which category the item CAVPPRRKKSAGNASASA [FS-736] belongs.
mid bin

Please let me know in which category the item CALKHRVKKSAGNASASA [FS-1358] belongs.
high bin

Please let me know in which category the item CASTGLYHVTAGNASASA [HC259] belongs.
mid bin

Please let me know in which category the item CAPPSVASSSAGNASASA [HC1258] belongs.
low bin
